Ref: patent US20210046082A1

- assay_summary: Quick solubility analysis in pH 4.5 buffer
- Assay type: physicochemical
- conditions_used: sodium acetate buffer, 25 °C, pH 4.5, aqueous buffer, thermodynamic from solid, pH 4.5 buffer solution (25 mM sodium acetate, 25° C.), filtered, LC, pH changed to 5-6
reported_metric: solubility at 10 min (mg/mL)
State the answer as a number, implicitly in mg/mL.

Name the recorded solubility at 10 min for Cc1cnc(CNC(=O)c2c(=O)c3ccc(N4CCCN(C)CC4)nc3n3c2sc2ccccc23)cn1 . 29.3
